- ASSAY_TARGET: rat DOR (C6-DOR) (Rattus norvegicus, UniProt P33533)
- Sequence (P33533 whole entry): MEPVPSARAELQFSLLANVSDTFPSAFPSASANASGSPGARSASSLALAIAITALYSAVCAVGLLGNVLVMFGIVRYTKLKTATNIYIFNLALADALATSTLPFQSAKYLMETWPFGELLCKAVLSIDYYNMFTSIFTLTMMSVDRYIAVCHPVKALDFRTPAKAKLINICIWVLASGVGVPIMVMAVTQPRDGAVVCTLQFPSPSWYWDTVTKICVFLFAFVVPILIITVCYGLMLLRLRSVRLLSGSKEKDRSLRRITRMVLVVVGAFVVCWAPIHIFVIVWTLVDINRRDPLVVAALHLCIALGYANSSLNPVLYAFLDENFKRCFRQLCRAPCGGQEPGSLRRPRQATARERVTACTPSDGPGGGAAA
- PROTOCOL_SUMMARY: Stimulation of [35S]-GTPγS binding, C6-DOR membranes
- Type: biochemical
- DETAILS: [35S]-GTPγS binding; mean (SEM); dns: does not stimulate
REPORTED_METRIC: EC50 DOR

- MOLECULE: "Cc1cc(O)cc(C)c1C[C@H](N)C(=O)N[C@@H]1CCNc2ccc(CC3Cc4cccc(O)c4C3)cc21 (stereo partly drawn)"
  REPORTED_METRIC: "EC50 DOR"
  EXPERIMENTAL_VALUE: "dns^d"
- MOLECULE: "COc1ccc2c(c1)CC(Cc1ccc3c(c1)[C@H](NC(=O)[C@@H](N)Cc1c(C)cc(O)cc1C)CCN3)C2 (stereo partly drawn)"
  REPORTED_METRIC: "EC50 DOR"
  EXPERIMENTAL_VALUE: "dns^d"
- MOLECULE: "COc1ccc(Cc2ccc3c(c2)[C@H](NC(=O)[C@@H](N)Cc2c(C)cc(O)cc2C)CCN3)cc1"
  REPORTED_METRIC: "EC50 DOR"
  EXPERIMENTAL_VALUE: "dns^d"
- MOLECULE: "Cc1cc(O)cc(C)c1C[C@H](N)C(=O)N[C@@H]1CCNc2ccc(Cc3ccc(O)cc3)cc21"
  REPORTED_METRIC: "EC50 DOR"
  EXPERIMENTAL_VALUE: "dns^d"
- MOLECULE: "COc1cccc2c1CC(Cc1ccc3c(c1)[C@H](NC(=O)[C@@H](N)Cc1c(C)cc(O)cc1C)CCN3)C2 (stereo partly drawn)"
  REPORTED_METRIC: "EC50 DOR"
  EXPERIMENTAL_VALUE: "dns^d"
- MOLECULE: "Cc1cc(O)cc(C)c1C[C@H](N)C(=O)N[C@@H]1CCNc2ccc(CC3Cc4ccc(O)cc4C3)cc21 (stereo partly drawn)"
  REPORTED_METRIC: "EC50 DOR"
  EXPERIMENTAL_VALUE: "dns"

----------
- ASSAY_TARGET: human KOR (CHO-KOR) (Homo sapiens)
- Sequence (P41145 whole entry): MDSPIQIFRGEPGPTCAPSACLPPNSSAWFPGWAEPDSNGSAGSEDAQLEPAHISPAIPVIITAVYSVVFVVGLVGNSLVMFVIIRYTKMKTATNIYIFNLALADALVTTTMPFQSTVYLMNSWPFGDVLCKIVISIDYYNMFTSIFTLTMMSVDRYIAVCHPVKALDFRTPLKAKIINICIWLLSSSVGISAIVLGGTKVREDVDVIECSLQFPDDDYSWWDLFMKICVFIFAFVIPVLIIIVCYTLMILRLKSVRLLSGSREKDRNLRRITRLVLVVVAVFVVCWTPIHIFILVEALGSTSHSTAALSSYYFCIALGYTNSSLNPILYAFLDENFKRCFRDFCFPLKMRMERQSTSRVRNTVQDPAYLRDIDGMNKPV
- PROTOCOL_SUMMARY: Stimulation of [35S]-GTPγS binding, CHO-KOR membranes
- Assay type: biochemical
- DETAILS: [35S]-GTPγS binding; mean (SEM); dns: does not stimulate

- MOLECULE: "Cc1cc(O)cc(C)c1C[C@H](N)C(=O)N[C@@H]1CCNc2ccc(Cc3ccc(O)cc3)cc21"
  EC50 KOR: "dns^d"
- MOLECULE: "COc1ccc2c(c1)CC(Cc1ccc3c(c1)[C@H](NC(=O)[C@@H](N)Cc1c(C)cc(O)cc1C)CCN3)C2 (stereo partly drawn)"
  EC50 KOR: "dns"
- MOLECULE: "COc1cccc2c1CC(Cc1ccc3c(c1)[C@H](NC(=O)[C@@H](N)Cc1c(C)cc(O)cc1C)CCN3)C2 (stereo partly drawn)"
  EC50 KOR: "dns^d"
- MOLECULE: "Cc1cc(O)cc(C)c1C[C@H](N)C(=O)N[C@@H]1CCNc2ccc(CC3Cc4ccc(O)cc4C3)cc21 (stereo partly drawn)"
  EC50 KOR: "dns"
- MOLECULE: "COc1ccc(Cc2ccc3c(c2)[C@H](NC(=O)[C@@H](N)Cc2c(C)cc(O)cc2C)CCN3)cc1"
  EC50 KOR: "dns^d"
- MOLECULE: "COc1cccc(Cc2ccc3c(c2)[C@H](NC(=O)[C@@H](N)Cc2c(C)cc(O)cc2C)CCN3)c1"
  EC50 KOR: "dns^d"
